The entries below are paired with their reported bioavailability.
experimental-protocol: Oral bioavailability in Sprague-Dawley rat plasma at 1 mg/kg administered through cassette dosing by LC/MS/MS analysis
Type: ADME, organism-based
test-readout: bioavailability (%)

[
  {
    "smiles": "Cn1c(C2CC2)nc2ccc(-n3ccc(OCc4ccc(Cl)s4)cc3=O)cc21",
    "value-measured": 23
  },
  {
    "smiles": "Cn1c(C2CC2)nc2ccc(-n3ccc(OCc4ccc(C(F)(F)F)s4)cc3=O)cc21",
    "value-measured": 57
  }
]

====

The entries below are paired with their reported pIC50.
measured-on: Melanin-concentrating hormone receptor 1 (Homo sapiens, UniProt Q99705)
Sequence (Q99705 whole entry): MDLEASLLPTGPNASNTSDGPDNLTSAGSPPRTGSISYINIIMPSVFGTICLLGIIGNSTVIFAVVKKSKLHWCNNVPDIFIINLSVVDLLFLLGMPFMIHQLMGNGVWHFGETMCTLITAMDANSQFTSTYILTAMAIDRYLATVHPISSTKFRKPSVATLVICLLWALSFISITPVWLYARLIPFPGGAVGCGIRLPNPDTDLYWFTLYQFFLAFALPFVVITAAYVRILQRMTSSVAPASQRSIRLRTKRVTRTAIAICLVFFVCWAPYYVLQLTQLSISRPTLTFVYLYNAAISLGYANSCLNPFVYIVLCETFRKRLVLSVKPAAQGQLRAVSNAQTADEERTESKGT
experimental-protocol: Displacement of [125I]-MCH(4 to 19) from human MCHR1 expressed in CHO cell membranes after 1 hr by liquid scintillation counting
pIC50: −log10 of the molar value.
test-readout: pIC50

[
  {
    "smiles": "Cn1c(C2CC2)nc2ccc(-n3ccc(OCc4ccc(C(F)(F)F)s4)cc3=O)cc21",
    "test-readout": "pIC50",
    "value-measured": 7.80
  },
  {
    "smiles": "Cn1c(C2CC2)nc2ccc(-n3ccc(OCc4csc(Cl)c4)cc3=O)cc21",
    "test-readout": "pIC50",
    "value-measured": 7.85
  },
  {
    "smiles": "Cn1c(CC2CC2)nc2ccc(-n3ccc(OCc4ccc(F)cc4)cc3=O)cc21",
    "test-readout": "pIC50",
    "value-measured": 7.05
  },
  {
    "smiles": "Cn1c(C2CC2)nc2ccc(-n3ccc(OCc4ccccc4)cc3=O)cc21",
    "test-readout": "pIC50",
    "value-measured": 7.35
  },
  {
    "smiles": "Cn1c(C2CC2)nc2ccc(-n3ccc(OCc4cccc(Cl)c4)cc3=O)cc21",
    "test-readout": "pIC50",
    "value-measured": 7.00
  }
]

====

experimental-protocol: Fraction unbound in po dosed DIO-F344/Jcl rat plasma
Format: ADME, organism-based

[
  {
    "smiles": "Cn1c(C2CC2)nc2ccc(-n3ccc(OCc4ccc(Cl)s4)cc3=O)cc21",
    "fraction unbound": 0.02
  }
]

====

The entries below are paired with their reported activity at 30 µM.
measured-on: UniProtKB P08684
Sequence (P08684 whole entry): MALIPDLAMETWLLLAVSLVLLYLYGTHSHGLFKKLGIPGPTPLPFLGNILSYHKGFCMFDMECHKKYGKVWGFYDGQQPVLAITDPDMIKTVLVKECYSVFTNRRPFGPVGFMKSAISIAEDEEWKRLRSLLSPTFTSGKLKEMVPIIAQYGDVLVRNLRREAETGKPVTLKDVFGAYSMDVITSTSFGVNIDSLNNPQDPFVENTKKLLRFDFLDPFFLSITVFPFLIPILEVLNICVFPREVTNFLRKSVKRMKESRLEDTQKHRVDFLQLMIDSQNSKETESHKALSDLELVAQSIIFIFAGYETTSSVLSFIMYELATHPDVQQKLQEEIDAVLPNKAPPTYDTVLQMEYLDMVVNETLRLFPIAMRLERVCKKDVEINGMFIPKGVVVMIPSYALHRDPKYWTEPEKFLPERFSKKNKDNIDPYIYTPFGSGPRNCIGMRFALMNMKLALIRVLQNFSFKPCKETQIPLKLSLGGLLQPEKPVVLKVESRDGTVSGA
experimental-protocol: Time dependent inhibition of CYP3A4 in human liver microsomes assessed as conversion of testosterone to 6beta-hydroxytestosterone by measuring remaining activity at 30 uM by UPLC analysis in presence of NADPH generating system
Type: ADME
setup-conditions: read-out: Activity
test-readout: activity at 30 µM (%)

[
  {
    "smiles": "Cn1c(C2CC2)nc2ccc(-n3ccc(OCc4cc(C(F)(F)F)cs4)cc3=O)cc21",
    "measured-on": "UniProtKB P08684",
    "quantity-unit": "%",
    "value-measured": 87
  },
  {
    "smiles": "Cn1c(C2CC2)nc2ccc(-n3ccc(OCc4csc(C(F)(F)F)c4)cc3=O)cc21",
    "measured-on": "UniProtKB P08684",
    "quantity-unit": "%",
    "value-measured": 96
  },
  {
    "smiles": "Cn1c(C2CC2)nc2ccc(-n3ccc(OCc4ccc(C(F)(F)F)s4)cc3=O)cc21",
    "measured-on": "UniProtKB P08684",
    "quantity-unit": "%",
    "value-measured": 97
  },
  {
    "smiles": "Cn1c(C2CC2)nc2ccc(-n3ccc(OCc4ccc(Cl)s4)cc3=O)cc21",
    "measured-on": "UniProtKB P08684",
    "quantity-unit": "%",
    "value-measured": 83
  },
  {
    "smiles": "Cn1c(C2CC2)nc2ccc(-n3ccc(OCc4csc(Cl)c4)cc3=O)cc21",
    "measured-on": "UniProtKB P08684",
    "quantity-unit": "%",
    "value-measured": 44
  },
  {
    "smiles": "Cn1c(C2CC2)nc2ccc(-n3ccc(OCc4cc(Cl)cs4)cc3=O)cc21",
    "measured-on": "UniProtKB P08684",
    "quantity-unit": "%",
    "value-measured": 25
  },
  {
    "smiles": "Cn1c(C2CC2)nc2ccc(-n3ccc(OCc4ccsc4)cc3=O)cc21",
    "measured-on": "UniProtKB P08684",
    "quantity-unit": "%",
    "value-measured": 74
  }
]

====

measured-on: Melanin-concentrating hormone receptor 1 (Rattus norvegicus, UniProt P97639)
Sequence (P97639 whole entry): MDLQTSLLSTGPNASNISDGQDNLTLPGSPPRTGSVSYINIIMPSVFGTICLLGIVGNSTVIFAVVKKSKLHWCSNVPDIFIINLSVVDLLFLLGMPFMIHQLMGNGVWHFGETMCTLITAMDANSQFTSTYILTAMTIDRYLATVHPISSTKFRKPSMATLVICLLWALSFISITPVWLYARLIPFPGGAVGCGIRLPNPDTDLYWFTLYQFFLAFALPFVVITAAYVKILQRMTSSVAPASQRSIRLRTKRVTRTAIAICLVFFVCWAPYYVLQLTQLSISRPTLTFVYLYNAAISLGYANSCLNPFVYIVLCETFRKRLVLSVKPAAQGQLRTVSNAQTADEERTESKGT
experimental-protocol: Displacement of [125I]-MCH(4-19) from rat MCHR1 expressed in CHO cell membranes after 1 hr by liquid scintillation counting
pIC50: −log10 of the molar value.
pIC50 vs 7: at or above is YES, below is NO.

[
  {
    "smiles": "Cn1c(C2CC2)nc2ccc(-n3ccc(OCc4ccsc4)cc3=O)cc21",
    "label-class": "YES"
  },
  {
    "smiles": "CCc1nc2ccc(-n3ccc(OCc4ccc(F)cc4)cc3=O)cc2n1C",
    "label-class": "YES"
  },
  {
    "smiles": "Cn1c(C2CC2)nc2ccc(-n3ccc(OCc4cc(Cl)cs4)cc3=O)cc21",
    "label-class": "YES"
  },
  {
    "smiles": "Cn1c(C2CC2)nc2ccc(-n3ccc(OCc4ccccc4)cc3=O)cc21",
    "label-class": "YES"
  },
  {
    "smiles": "Cn1c(C2CC2)nc2ccc(-n3ccc(OCc4csc(C(F)(F)F)c4)cc3=O)cc21",
    "label-class": "YES"
  },
  {
    "smiles": "Cn1c(C2CC2)nc2ccc(-n3ccc(OCc4csc(Cl)c4)cc3=O)cc21",
    "label-class": "YES"
  },
  {
    "smiles": "Cn1c(C2CC2)nc2ccc(-n3ccc(OCc4ccc(F)cc4)cc3=O)cc21",
    "label-class": "YES"
  },
  {
    "smiles": "Cn1c(C2CC2)nc2ccc(-n3ccc(OCc4cc(C(F)(F)F)cs4)cc3=O)cc21",
    "label-class": "YES"
  },
  {
    "smiles": "CCCc1nc2ccc(-n3ccc(OCc4ccc(F)cc4)cc3=O)cc2n1C",
    "label-class": "YES"
  },
  {
    "smiles": "Cn1c(C2CCCC2)nc2ccc(-n3ccc(OCc4ccc(F)cc4)cc3=O)cc21",
    "label-class": "NO"
  },
  {
    "smiles": "Cn1c(C2CC2)nc2ccc(-n3ccc(OCc4ccc(Cl)s4)cc3=O)cc21",
    "label-class": "YES"
  },
  {
    "smiles": "Cn1c(C2CCC2)nc2ccc(-n3ccc(OCc4ccc(F)cc4)cc3=O)cc21",
    "label-class": "NO"
  },
  {
    "smiles": "Cn1c(C2CC2)nc2ccc(-n3ccc(OCc4ccc(Cl)cc4)cc3=O)cc21",
    "label-class": "YES"
  },
  {
    "smiles": "CCn1c(C2CC2)nc2ccc(-n3ccc(OCc4ccc(Cl)cc4)cc3=O)cc21",
    "label-class": "YES"
  },
  {
    "smiles": "Cn1c(C2CC2)nc2ccc(-n3ccc(OCc4ncc(Cl)cn4)cc3=O)cc21",
    "label-class": "NO"
  },
  {
    "smiles": "Cn1c(CC(C)(C)C)nc2ccc(-n3ccc(OCc4ccc(F)cc4)cc3=O)cc21",
    "label-class": "NO"
  },
  {
    "smiles": "Cn1c(C2CC2)nc2ccc(-n3ccc(OCc4ccc(Cl)cn4)cc3=O)cc21",
    "label-class": "YES"
  },
  {
    "smiles": "Cn1c(C2CC2)nc2ccc(-n3ccc(OCc4ccc(C(F)(F)F)s4)cc3=O)cc21",
    "label-class": "YES"
  }
]

====

measured-on: Melanin-concentrating hormone receptor 1 (Homo sapiens, UniProt Q99705)
experimental-protocol: Displacement of [125I]-MCH(4 to 19) from human MCHR1 expressed in CHO cell membranes after 1 hr by liquid scintillation counting
pIC50: −log10 of the molar value.
The entries below are paired with their reported pIC50.

[
  {
    "smiles": "Cn1c(C2CC2)nc2ccc(-n3ccc(OCc4ccc(Cl)cn4)cc3=O)cc21",
    "qualifier-sign": "=",
    "pIC50": 7.14
  },
  {
    "smiles": "Cn1c(C2CCCC2)nc2ccc(-n3ccc(OCc4ccc(F)cc4)cc3=O)cc21",
    "qualifier-sign": "=",
    "pIC50": 6.22
  },
  {
    "smiles": "Cn1c(C2CC2)nc2ccc(-n3ccc(OCc4ccc(Cl)cc4)cc3=O)cc21",
    "qualifier-sign": "=",
    "pIC50": 7.46
  },
  {
    "smiles": "Cn1c(C2CC2)nc2ccc(-n3ccc(OCc4cc(Cl)cs4)cc3=O)cc21",
    "qualifier-sign": "=",
    "pIC50": 7.77
  },
  {
    "smiles": "Cn1c(CC(C)(C)C)nc2ccc(-n3ccc(OCc4ccc(F)cc4)cc3=O)cc21",
    "qualifier-sign": "<",
    "pIC50": 6.00
  },
  {
    "smiles": "Cn1c(C2CC2)nc2ccc(-n3ccc(OCc4cc(C(F)(F)F)cs4)cc3=O)cc21",
    "qualifier-sign": "=",
    "pIC50": 7.47
  },
  {
    "smiles": "CCCc1nc2ccc(-n3ccc(OCc4ccc(F)cc4)cc3=O)cc2n1C",
    "qualifier-sign": "=",
    "pIC50": 7.47
  },
  {
    "smiles": "CCn1c(C2CC2)nc2ccc(-n3ccc(OCc4ccc(Cl)cc4)cc3=O)cc21",
    "qualifier-sign": "=",
    "pIC50": 7.43
  },
  {
    "smiles": "Cn1c(C2CC2)nc2ccc(-n3ccc(OCc4ccccc4Cl)cc3=O)cc21",
    "qualifier-sign": "=",
    "pIC50": 6.80
  },
  {
    "smiles": "Cn1c(C2CCC2)nc2ccc(-n3ccc(OCc4ccc(F)cc4)cc3=O)cc21",
    "qualifier-sign": "=",
    "pIC50": 6.62
  }
]
